biological target: CDK2/human cyclin E (Homo sapiens); test: Determination of activity of CDK2 kinase (Caliper mobility shift); details: 10 μM ATP, 0.1 nM enzyme, 25° C. 6 hours; read-out: CDK2/CycE IC50
# Lookup of reported pIC50 keyed by entry
Remember the convention: pIC50 equals -log10 of concentration in molar.

Cc1nc2c(F)cc(-c3nc(Nc4ccc(CN5CCC(N(C)CCO)CC5)cn4)ncc3F)cc2n1C(C)C	6.50
Cc1nc2c(F)cc(-c3nc(Nc4ccc(N5CCN(CCO)CC5)cn4)ncc3F)cc2n1C(C)C	7.02
CNC1CCN(c2ccc(Nc3ncc(F)c(-c4cc(F)c5nc(C)n(C(C)C)c5c4)n3)nc2)CC1	6.91
CCN1CCN(Cc2ccc(Nc3ncc(F)c(-c4cc(F)c5nc(CO)n(C(C)C)c5c4)n3)nc2)CC1	7.09
CC(C)n1c(CF)nc2c(F)cc(-c3nc(Nc4ccc(CN5CCC(N(C)CCO)CC5)cn4)ncc3F)cc21	8.21
CC(C)n1c(CF)nc2c(F)cc(-c3nc(Nc4ccc(N5CCC(N(C)CCO)CC5)cn4)ncc3F)cc21	8.28

Then there is this molecule:
Ask: Give the measured pIC50 of `CC(C)n1c(CF)nc2c(F)cc(-c3nc(Nc4ccc(N5CCC(N(C)C)CC5)cn4)ncc3F)cc21` .
Result: 6.64

----------
target: CDK4/human cyclin D1 (Homo sapiens); assay: Determination of activity of CDK4 kinase (Caliper mobility shift); conditions: 25 μM ATP, 5 nM enzyme, 25° C. 6 hours; read-out: CDK4/CycD1 IC50
Sequence (P11802 whole entry): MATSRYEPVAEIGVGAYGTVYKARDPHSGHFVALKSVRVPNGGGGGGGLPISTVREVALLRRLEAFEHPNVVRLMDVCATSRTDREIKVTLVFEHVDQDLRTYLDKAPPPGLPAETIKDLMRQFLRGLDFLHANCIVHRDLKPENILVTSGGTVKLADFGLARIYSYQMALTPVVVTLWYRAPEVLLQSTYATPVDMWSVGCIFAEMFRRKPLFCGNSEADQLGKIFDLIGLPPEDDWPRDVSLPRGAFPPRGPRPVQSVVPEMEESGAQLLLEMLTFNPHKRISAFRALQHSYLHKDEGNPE
Sequence (P24385 whole entry partner): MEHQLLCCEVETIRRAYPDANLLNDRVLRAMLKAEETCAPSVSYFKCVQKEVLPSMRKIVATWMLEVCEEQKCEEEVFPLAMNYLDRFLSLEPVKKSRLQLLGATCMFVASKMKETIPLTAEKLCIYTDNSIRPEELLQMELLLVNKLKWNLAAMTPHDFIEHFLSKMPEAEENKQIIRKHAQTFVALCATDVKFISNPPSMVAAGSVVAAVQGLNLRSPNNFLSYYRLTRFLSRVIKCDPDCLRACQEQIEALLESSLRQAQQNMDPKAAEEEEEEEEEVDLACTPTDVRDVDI
# Lookup of reported IC50 keyed by entry
Answer format: numeric, nM implied, no suffix.

Reference set (4 entries):
CNC1CCN(c2ccc(Nc3ncc(F)c(-c4cc(F)c5nc(C)n(C(C)C)c5c4)n3)nc2)CC1	0.17
COCCN1CCN(c2ccc(Nc3ncc(F)c(-c4cc(F)c5nc(C)n(C(C)C)c5c4)n3)nc2)CC1	0.75
CC(C)n1c(CF)nc2c(F)cc(-c3nc(Nc4ccc(N5CCC(N(C)C)CC5)cn4)ncc3F)cc21	1.25
CCN1CCN(c2ccc(Nc3ncc(F)c(-c4cc(F)c5nc(CF)n(C(C)C)c5c4)n3)nc2)CC1	0.98

Ask: Give the measured IC50 of `Cc1nc2c(F)cc(-c3nc(Nc4ccc(N5CCC(N(C)CCO)CC5)cn4)ncc3F)cc2n1C(C)C` .
Result: 1.78

Ask: Same read-out for `CC(C)n1c(CF)nc2c(F)cc(-c3nc(Nc4ccc(CN5CCC(N(C)CCO)CC5)cn4)ncc3F)cc21` ?
Result: 1.75

Ask: Same read-out for `CCN1CCN(Cc2ccc(Nc3ncc(F)c(-c4cc(F)c5nc(CF)n(C(C)C)c5c4)n3)nc2)CC1` ?
Result: 2.6

----------
target: CDK2/human cyclin E (Homo sapiens, UniProt P24941); experiment: Determination of activity of CDK2 kinase (Caliper mobility shift); conditions: 10 μM ATP, 0.1 nM enzyme, 25° C. 6 hours; read-out: CDK2/CycE IC50
measurement.name: IC50 (nM)
Answer format: numeric, nM implied, no suffix.

CC(C)n1c(CF)nc2c(F)cc(-c3nc(Nc4ccc(CN5CCC(N(C)C)CC5)cn4)ncc3F)cc21	8.2
CCN1CCN(c2ccc(Nc3ncc(F)c(-c4cc(F)c5nc(CF)n(C(C)C)c5c4)n3)nc2)CC1	128

Ask: Give the measured IC50 of `COCCN1CCN(c2ccc(Nc3ncc(F)c(-c4cc(F)c5nc(C)n(C(C)C)c5c4)n3)nc2)CC1` .
Result: 92

Reference for the values: patent US12673935B2
